# Test system: NCI-H460
# method notes: NCI tumour cell line growth inhibition, 48 h
Active and inactive are the calls of the source. Rule as the data show it: active = GI50 up to about 1.1 µM and inactive = higher.
Bench note: report the call from 1 (yes) for active, 0 (no) for inactive

CN1N=C2c3ccccc3OC(c3ccccc3)[C@H]2C1c1ccccc1 (stereo not given in full): 0 (no)
O=C1C[C@@]23CCC4(CC2=CCC[C@H]3O1)OCCO4: 0 (no)

(Q) For NNC(=O)/C(=C/c1ccc(Cl)cc1Cl)NC(=O)c1ccccc1 , what call appears in the results of this test?
(A) 0 (no)

(Q) For CC1=NN(C(=O)c2ccccc2O)C(c2ccccc2Cl)C1C(=O)Nc1ccccc1 (stereo not given) , what call appears in the results of this test?
(A) 1 (yes)

(Q) For CCOC(=O)NC(=O)c1cn(CCN2CCN(C(=O)NCCCCCCNC(=O)N3CCN(CCn4cc(C(=O)NC(=O)OCC)c(=O)[nH]c4=O)CC3)CC2)c(=O)[nH]c1=O , what call appears in the results of this test?
(A) 0 (no)

* * *

# Tested on: NCI/ADR-RES
# method notes: NCI tumour cell line growth inhibition, 48 h
Active and inactive are the calls of the source. No stated cut-off is given here; in the data, active = GI50 up to about 1.1 µM and inactive = higher.
readout label: GI50

Answered cases to consult:
Cc1nc(N/N=C/c2ccccc2Cl)[nH]c(=O)c1CCO: 61.1 µM (inactive)
C=C1C(=O)O[C@H]2C[C@@]3(C)[C@H](O)CCC(=C)[C@@H]3[C@@H](OC(C)=O)[C@H]12: 21.8 µM (inactive)
O=C1Oc2cc3c(c4cccc1c24)O[C@H](c1ccccc1)[C@@H](c1ccccc1)[C@@H]3c1ccc(Cl)cc1: > 100 µM (inactive)
COc1ccc(C(CC(=O)c2ccc(O)cc2)C(C(=O)c2ccc(O)cc2)C(c2ccc(OC)cc2)C2C(=O)NC(=S)NC2=O)cc1 (stereo not given): 17.9 µM (inactive)
Cc1n[nH]c(=O)n1/N=C/c1ccc(F)cc1: > 100 µM (inactive)

Can you give me GI50 for all of these, one by one?
1. CN(C)C1(N(C)C)Oc2c(c(=O)n(C)c(=O)n2C)C(c2ccccc2)C1(F)F (stereo not given)
2. CCC[C@@H](O)C[C@@H]1CCC[C@H](C[C@@H](O)CC)N1C

(A)
1: > 100 µM (inactive); 2: > 100 µM (inactive)

Can you give me GI50 for all of these, one by one?
1. CCOC(=O)C(C)(Cc1ccc(O)cn1)NC(=O)c1ccccc1 (stereo not given)
2. O=C1CSC(c2cccc(Oc3ccccc3)c2)N1c1cc(Cl)ccc1Cl (stereo not given)
3. CC(=C(C(=O)O)C(=O)O)c1cc(-c2cccs2)cc(-c2ccc(Cl)cc2)c1O
4. COc1cc(/C=N/n2c(C)n[nH]c2=O)cc(OC)c1OC

(A)
1. > 100 µM (inactive)
2. 29.2 µM (inactive)
3. 20.3 µM (inactive)
4. > 100 µM (inactive)

Can you give me GI50 for all of these, one by one?
1. OC1[C@@H]2[C@@H](O)[C@H](O)[C@@H](O)N2C[C@@H]1O (stereo not given in full)
2. O=[N+]([O-])c1ccc(C2=NOC(c3ccc(Cl)cc3)N2C23CC4CC(CC(C4)C2)C3)cc1 (stereo not given)
3. N#C[C@H](C(=O)c1ccccc1F)c1nc2ccccc2[nH]1
4. COC1CC(NC(=O)C(F)(F)F)C(OC(C)=O)C(C)O1 (stereo not given)

(A)
["> 100 µM (inactive)", "> 100 µM (inactive)", "> 100 µM (inactive)", "> 100 µM (inactive)"]

* * *

# Test system: SK-MEL-28
# method notes: NCI tumour cell line growth inhibition, 48 h
Calls of active or inactive are those of the source. No stated cut-off is given here; in the data, active = GI50 up to about 1.1 µM and inactive = higher.
Give GI50 for every item shown.

Can you give me GI50 for all of these, one by one?
1. CCN(CC)CC(C(=O)Nc1c(C)cccc1C)/C(C)=N/NC(N)=S (stereo not drawn)
2. Cc1ccc(CCC(=O)C(=O)O)s1
3. O=C(N/N=C/C=C/c1ccccc1)[C@H](O)[C@@H](O)C(=O)N/N=C/C=C/c1ccccc1

(A)
> 100 µM (inactive)
> 100 µM (inactive)
> 100 µM (inactive)

* * *

# Test system: MDA-N
# method notes: NCI tumour cell line growth inhibition, 48 h
Active and inactive are the calls of the source. No stated cut-off is given here; in the data, active = GI50 up to about 1.1 µM and inactive = higher.
Give GI50 for every item shown.

O=c1c2ccc(Cl)cc2oc2c(CSc3ccccc3)cccc12: 31.7 µM (inactive)
CN1CCc2cc3c(c4c2C1C(O)c1ccccc1-4)OCO3 (stereo unspecified): 5.08 µM (inactive)
CCn1c(-c2cc(OC)cc(OC)c2)nc2c1C(=O)c1ccccc1C2=O: > 100 µM (inactive)
O=C(O)c1cc(-c2ccc3cc4c(cc3c2)OCO4)nc2ccccc12: 36 µM (inactive)

Can you give me GI50 for all of these, one by one?
1. C=C1C(=O)O[C@H]2C[C@@]3(C)[C@H](O)CCC(=C)[C@@H]3[C@@H](OC(C)=O)[C@H]12
2. CCN1CCC(O)(/C=C/c2ccc(C)cc2)C(C(=O)/C=C/c2ccc(C)cc2)C1 (stereo unspecified)
3. CC1CN=C(N(C(=O)Nc2ccccc2)c2ccccc2)S1 (stereo unspecified)
4. Cc1cc2c(cc1C)C(=O)c1ncccc1C2=O
5. Cc1ccc(NC(=S)NNC(=O)c2cc(-c3ccccc3)nc3ccccc23)cc1C
6. Cc1nc2ccc(S(=O)(=O)Nc3ccccc3Cl)cc2c(=O)n1NC(=O)CNc1ccccc1Cl
7. COc1cc(Cc2cc3c(c(C(=O)O)c2Br)OCO3)cc(OC)c1OC

(A)
1: 4.31 µM (inactive); 2: 3.18 µM (inactive); 3: 24.1 µM (inactive); 4: 18.7 µM (inactive); 5: 17.2 µM (inactive); 6: > 100 µM (inactive); 7: 23.8 µM (inactive)

* * *

Give GI50 for every item shown.
# Tested on: UO-31
# method notes: NCI tumour cell line growth inhibition, 48 h
Calls of active or inactive are those of the source. Cut-off read from the data, not from the text of the source: active = GI50 up to about 1.1 µM and inactive = higher.

Answered cases to consult:
O=c1[nH]c2cccccc-2c1-c1nc2ccccc2[nH]1: 31.1 µM (inactive)
CC(N/N=C(\S)N1CCN(c2ccccn2)CC1)c1cccc[n+]1[O-] (stereo not given): 8.13 µM (inactive)
COC(=O)C(=O)c1cc2ccccc2n1S(=O)(=O)c1ccccc1: > 100 µM (inactive)

Can you give me GI50 for all of these, one by one?
1. CCC(=O)N/S(=N/S(=O)(=O)c1ccccc1)C(Cl)(Cl)Cl (stereo not given)
2. C=CCC1=C2CCCCC2CCC1=O (stereo not given)
3. CCCCN(CCCC)CC(C(=O)Nc1ccccc1)/C(C)=N\NC(=O)c1ccncc1 (stereo not given)
4. CCOC(=O)c1ccc(NC(=O)O/N=C(/Cl)CCl)cc1

(A)
1: > 100 µM (inactive); 2: > 100 µM (inactive); 3: 28.5 µM (inactive); 4: 45 µM (inactive)

* * *

# Test system: NCI-H23
# method notes: NCI tumour cell line growth inhibition, 48 h
The source made the active and inactive calls. No stated cut-off is given here; in the data, active = GI50 up to about 1.1 µM and inactive = higher.
readout label: GI50

O=P(c1ccccc1)(c1ccccc1)c1ccc2c(c1)OCCOCCOCCOCCO2: > 100 µM (inactive)
O=C1OC2C=CCC1C2 (stereo not given): > 100 µM (inactive)
S=C1N=C2C(=N1)n1c3c(c4ccccc41)CCCC23 (stereo not given): 48.3 µM (inactive)

Can you give me GI50 for all of these, one by one?
1. Cc1noc(NS(=O)(=O)c2ccc(NC(=O)c3ccc4nc5ccccc5c(Nc5ccc(S(=O)(=O)Nc6onc(C)c6C)cc5)c4c3)cc2)c1C
2. NC(Cc1c[nH]c2ccccc12)C(=O)O (stereo not given)
3. Cc1cn(C2CC(N/C(=N/C#N)NCC3OC(n4cnc5c(N)ncnc54)CC3O)C(CO)O2)c(=O)[nH]c1=O (stereo not given)
4. CN1CCc2cc3c(c4c2C1C(O)c1ccccc1-4)OCO3 (stereo not given)
5. COC(=O)OC[C@H]1O[C@@H](n2cc(C)c(=O)[nH]c2=O)CC1OC(=O)OC (stereo not given in full)

(A)
["> 100 µM (inactive)", "> 300 µM (inactive)", "> 100 µM (inactive)", "12 µM (inactive)", "> 100 µM (inactive)"]

Can you give me GI50 for all of these, one by one?
1. C=CCNc1nc2c(s1)C(=O)c1ccccc1C2=O
2. Cc1nc(N/N=C/c2ccccc2Cl)[nH]c(=O)c1CCO

(A)
["4.4 µM (inactive)", "35.8 µM (inactive)"]

* * *

# Tested on: HCC 2998
# method notes: NCI tumour cell line growth inhibition, 48 h
Calls of active or inactive are those of the source. Rule as the data show it: active = GI50 up to about 1.1 µM and inactive = higher.
Give GI50 for every item shown.

O=c1ncccn1[C@@H]1O[C@H](CO)[C@H](O)C1O (stereo partly specified): 40.9 µM (inactive)
C/C(=C1\N=C(c2ccccc2)OC1=O)c1ccccc1: > 100 µM (inactive)
CN(C)c1ccc(/C=C(\C#N)c2nc(-c3cc4ccccc4oc3=O)cs2)cc1: > 50 µM (inactive)
CN(C)CCCN1CCC2(CCC(C(C)(C)C)CC2)CC1: 0.21 µM (active)
CSCCC(C(=O)O)N(CC1(O)OCC(O)C(O)C1O)N=O (stereo unspecified): > 100 µM (inactive)
CCOC(=O)c1cc2c(cn1)[nH]c1cccc(N)c12: > 100 µM (inactive)
NC(=O)c1csc(C2OC(COP(=O)(O)CP(=O)(O)OCC3OC(n4cnc5c(N)ncnc54)C(O)C3O)C(O)C2O)n1 (stereo unspecified): > 100 µM (inactive)
COC(=O)c1sc2ncc3c(c2c1N)CCCCCC3: > 100 µM (inactive)

Can you give me GI50 for all of these, one by one?
1. O=C1CC(=O)NC(NN2C(=O)CSC2C(=O)c2ccco2)=N1 (stereo unspecified)
2. O=c1c2ccc(Cl)cc2oc2c(CSc3ccccc3)cccc12

(A)
["> 100 µM (inactive)", "> 54.1 µM (inactive)"]

Values from ChEMBL document CHEMBL1201862
